Please provide measured kinase still bound, per cent of control for the entries that follow.
target-system: MTOR (human)
test: KINOMEscan competition binding
condition-description: compound 10.0 µM

smi	kinase still bound, per cent of control
COc1cc(C(=O)N2CCC(N3CCN(C)CC3)CC2)ccc1Nc1ncc2c(n1)N(C)c1ccccc1C(=O)N2C	97%
NC(=O)Nc1cc(-c2cccc(F)c2)sc1C(=O)N[C@@H]1CCCNC1	72%
C[C@@H](Oc1cc(-c2cnn(C3CCNCC3)c2)cnc1N)c1c(Cl)ccc(F)c1Cl	100%

Dear reader, for each entry below, please note its kinase still bound, per cent of control.
1. O=C(Nc1cccc(Nc2ncc(Br)c(NCCc3cnc[nH]3)n2)c1)N1CCCC1
2. CNC(=O)c1cc(Oc2ccc(NC(=O)Nc3ccc(Cl)c(C(F)(F)F)c3)cc2)ccn1
3. O=C1NC(=O)/C(=C/c2ccc3nccc(-c4ccncc4)c3c2)S1

1: 87%; 2: 80%; 3: 5%
